Data credit: the supplement of paper PMC10567573

protein stability index overview
B1: PLAGL1 (parent)
chain: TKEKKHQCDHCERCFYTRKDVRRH

Variants of: B1
assay-explanation: protein stability index of a GFP-peptide fusion (GPS, HEK-293T) (PSI 1-6); higher = more stable;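 note: lentivirally expressed fusions sorted by FACS into six bins by GFP to DsRed ratio, PSI derived from sequencing read proportions per bin multiplied by bin number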
study-conditions: c terminus: a fixed tail appended
// keep it numeric: no unit symbol after the value

Here are 8 variants together with their reported answers.
> print(dat)
   mutant.name  numeric.readout
1         R23L             3.92
2         C11A             3.62
3         R23Q             3.84
4         R22H             3.96
5         V21Q             3.25
6         D20M             3.44
7          E3N             3.59
8         R23S              3.7

// protein stability index value for D20S : 3.22

// protein stability index value for R22N : 4.04

// protein stability index value for K19R : 4.12
